A collection of binders and their measured Average of S/B
experimentalSystem: T1, recombinant purified FRα (ECL assay calibrator) (human, UniProt P15328 25-234)
T1 construct: Calibrator of the ECL sandwich assays; also called FRα calibrator; FRα standard
T1 sequence (P15328 25-234 limits assumed): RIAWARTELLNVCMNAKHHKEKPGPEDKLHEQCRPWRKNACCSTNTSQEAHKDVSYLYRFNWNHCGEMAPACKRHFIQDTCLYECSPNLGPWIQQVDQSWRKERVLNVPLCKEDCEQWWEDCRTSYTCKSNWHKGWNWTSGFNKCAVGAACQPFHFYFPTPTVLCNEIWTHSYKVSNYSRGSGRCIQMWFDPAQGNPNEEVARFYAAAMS
assayName: ECL sandwich on FRα, signal to background; capture 1A8.G11.E7; binder = detection Ab
testReadout: Average of S/B

binder="Monoclonal antibody 26A9.C4 (antibody, mouse IgG1, V domains shown, Murine IgG1 kappa from hybridoma; also called ATCC PTA-123092) VH: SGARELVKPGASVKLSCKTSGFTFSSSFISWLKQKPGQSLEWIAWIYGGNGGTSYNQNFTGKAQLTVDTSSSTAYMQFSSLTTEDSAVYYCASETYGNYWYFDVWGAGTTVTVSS VL: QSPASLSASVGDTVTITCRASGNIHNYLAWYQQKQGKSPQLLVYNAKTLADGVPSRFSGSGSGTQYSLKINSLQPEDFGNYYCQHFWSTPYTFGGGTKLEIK" testreadout="Average of S/B" reading=1
binder="Monoclonal antibody 1C6.E12.G8 (antibody, mouse IgG1, V domains shown, Murine IgG1 kappa from hybridoma; also called ATCC PTA-123091) VH: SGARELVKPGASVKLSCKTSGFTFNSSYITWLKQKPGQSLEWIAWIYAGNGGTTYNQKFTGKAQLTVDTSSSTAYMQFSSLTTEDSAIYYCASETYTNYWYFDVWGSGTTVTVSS VL: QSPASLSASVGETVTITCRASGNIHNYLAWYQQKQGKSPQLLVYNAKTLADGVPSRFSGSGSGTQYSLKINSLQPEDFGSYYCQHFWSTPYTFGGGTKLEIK" testreadout="Average of S/B" reading=1
binder="Monoclonal antibody 24H8.D3 (antibody, mouse IgG1, V domains shown, Biotin-conjugated when used as capture antibody in the ECL assay; also called ATCC PTA-123090) VH: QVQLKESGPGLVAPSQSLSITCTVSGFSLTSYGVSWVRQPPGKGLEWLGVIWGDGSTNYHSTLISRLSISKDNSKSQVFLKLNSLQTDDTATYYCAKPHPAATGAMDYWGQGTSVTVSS VL: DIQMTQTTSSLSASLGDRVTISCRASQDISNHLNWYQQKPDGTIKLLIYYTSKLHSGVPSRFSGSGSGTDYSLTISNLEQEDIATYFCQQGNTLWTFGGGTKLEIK" testreadout="Average of S/B" reading=1
